Readings of apparent KD of MS2 coat protein for the listed sequences
Tested on: MS2 coat protein
Assay: apparent KD of MS2 coat protein; designed switch direction (-1 OFF switch, 1 ON switch): -1; higher = weaker reporter binding
Conditions: input ligand: none
Express it in nM; write the number only.

Use these answered entries as a reference point.
>>> val("UAUUAACAAGUAAGAUCCCACAUGAGGAUCACCCAUGUGCUCGUCUUAUAAGGUACUGUGACGAAAGUCACGGUACC [Dup of Eli's R95 Sensor 3, v1 - 87] (Eterna round: R97, puzzle: Sensor, turn-off variant 1)")
16.5
>>> val("GCCGUAAAUGUGAGGAUAUACCUAUGGAUACAUAGGUAGAAGGCACAUGAGGAUCACCCAUGUUCUUAAUCGGC [Eli BMX r4m2] (Eterna round: R97, puzzle: Brourd's mod of Exclusion 4)")
185
>>> val("UUUGGUGUAGGAUAUACAUGAGGAUCACCCAUGUGCUCCUGCGAGUUCGAAUCCAAAGGUAGAAGGGCGCUAAU [Eternabot (L2) Solution 83] (Eterna round: R97, puzzle: Exclusion 3)")
21.2
>>> val("CCGUGAGGUAAUAAUCAGUACAUGAGGAUCACCCAUGUCAAGAAGUUGCUCGUCGGUCGGAAAUACGGACGACCCAU [Eternabot (Original) Solution 50] (Eterna round: R97, puzzle: Sensor, turn-off variant 1)")
17.9
>>> val("CCUAGUUGGUAAGGAUAUCCUACAUUGUUCUGACCCGGGCAUGCUACAUGAGGAUCACCCAUGUGGGAGAAGGUGCGUCAUCGC [Design 16] (Eterna round: R96, puzzle: Exclusion NG 2)")
83.4
>>> val("UUUUAGCAAGCGAGUAUUAACAUGAGGAUCACCCAUGUGCAUCCAGUAUUACUUUUAGAUCUUGCUCGUCUUAUAUA [JR_STOV1_v2_Sub083] (Eterna round: R97, puzzle: Sensor, turn-off variant 1)")
381
>>> val("CUGAGCAGACGGAGAUCCAACAUGAGGAUCACCCAUGUCUCAAAAGCUUAUUGCUCGUCUUAUCCUCCUCUGUUCAC [Mat - Sensor, turn-off var - Eli Mod - D54] (Eterna round: R97, puzzle: Sensor, turn-off variant 1)")
26.7
>>> val("AAGGGUACUUUCAGAACGACAUGAGGAUCACCCAUGUAGACUGAGGAUAUCUACUUCUAAGGACGGGAGAAGGCAGUGUAAUGU [Ex NG3 #72] (Eterna round: R96, puzzle: Exclusion NG 3)")
13.5
>>> val("AAUUUACAUGAGGAUCACCCAUGUGAGGAUAUAUGUUUAAAUUUUUUUUUUUUUUUUCAUAGAAGGCGCGUGAU [JR_Exc1_Sub048] (Eterna round: R97, puzzle: Exclusion 1)")
31.6
>>> val("ACAUGAGGAUCACCCAUGUGACCACAAUGGCUGAUGUAACAACAGGAUAUGCGUGAAUAUCUAACGCAGAAGGGUUAUGACUGG [Deportation 60 - Jieux - Exclusion NG 3] (Eterna round: R96, puzzle: Exclusion NG 3)")
65.4

Q) Find apparent KD of MS2 coat protein for GCAGCAUAGUCCAAAUAGGACAUACAUGAGGAUCACCCAUGUCAGGAUAUGGUCUGGAUUACAGGCCAGAAGGGACGUAGCUGC [Eli exng3 - 004] (Eterna round: R96, puzzle: Exclusion NG 3) on MS2 coat protein and write it down.
A) 23.6

Q) Please respond with reported apparent KD of MS2 coat protein (system MS2 coat protein) for CCGCUGUGAGGAUAUUAGUAGUAGUCAGAAAAGACUAUUACUGAGAAGGCACAUGAGGAUCACCCAUGUCGCGG [Mat - Exclusion 4 - Eli Mod - D49] (Eterna round: R97, puzzle: Exclusion 4) .
A) 28.8

Q) Report value only: apparent KD of MS2 coat protein, MS2 coat protein, CAUAUUCGAGGAUAUGCCUGAUGUCCUUAUGGAGCCCAUUCACAUGAGGAUCACCCAUGUAGAAGGCGGAUGCG [Eternabot (L1) Solution 37] (Eterna round: R97, puzzle: Exclusion 2)
A) 24.8

Q) Provide apparent KD of MS2 coat protein, recorded with MS2 coat protein, of AAACAAACGGGAGGAUAUCGACAUAUUCAACUGCGAGAAGGCCCAAAAGACAUGAGGAUCACCCAUGUAAACCGGGUGAGAAAU [Rimabi] (Eterna round: R96, puzzle: Exclusion NG 1)
A) 215

Q) State apparent KD of MS2 coat protein (MS2 coat protein) of CGGUAGUGCUCAGGAUAUACAUGAGGAUCACCCAUGUAACUAGAAUCGGUCGUCCGAUCAGUGGUGUAGAAGGGAGGCUGGCUG [random 1, A 25%] (Eterna round: R96, puzzle: Exclusion NG 2) .
A) 31.5

Q) Report apparent KD of MS2 coat protein on MS2 coat protein for this entry: GCACUGCGAGGAUAUACAUGAGGAUCACCCAUGUGUCGGCAGCCAUGUUAUUUCUAAUGUAGAAGGCGCGUAAA [JR_Ex3_Sub001] (Eterna round: R97, puzzle: Exclusion 3)
A) 33

Q) Provide MS2 coat protein apparent KD of MS2 coat protein reading for CGGCGGGCAGGAUAUGGUAAUAAUUACAUGAGGAUCACCCAUGUGGAUAUAUGGGAAUAACCAGAAGGGCUUGUUG [-20.1, -20 kcal, A 30%] (Eterna round: R97, puzzle: Exclusion 5) .
A) 74.4

Q) Give apparent KD of MS2 coat protein for AGAUCACAUGAGGAUCACCCAUGUCAGGAUAUCGUCACUGGAGCUUCGGCUCCAGUGACGAGAAGGGACAAUUA [E1/1-A3] (Eterna round: R97, puzzle: Exclusion 1) tested on MS2 coat protein.
A) 161

These entries and their values trace back to the supplement of paper PMC9170038.
